system: Nanoluciferase (engineered Oplophorus gracilirostris luciferase); test: Primary Nanoluciferase (NLuc) qHTS assay for identification of artifact compounds. (AID 1845222); conditions: NLuc-conditioned medium, Nano-Glo luminescence, 5 min; series mostly up to 54.1 µM;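 note: NLuc secreted into diluted conditioned medium of S16 cells; 0% = DMSO and -100% = no enzyme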
The source made the active and inactive calls. Calls come from the whole dose curve; as a rule, active = well fitted inhibition curve with a large enough effect; inconclusive = small, poorly fitted or top-dose-only effect; inactive = flat fitted curve, though single readings scatter.
readout.kind: activity, negative = inhibition

INSERT INTO assay_data (molecule, readout_kind, observed) VALUES
  ('COc1c2cc(c(O)c1OC)-c1cc(ccc1O)CCC(O)CCCC2 (centres undefined)', 'activity, negative = inhibition', 'inactive'),
  ('COc1cccc2cc3c(c(O[C@@H]4O[C@H](CO[C@@H]5O[C@H](CO)[C@@H](O)[C@H](O)[C@H]5O)[C@@H](O)[C@H](O)[C@H]4O)c12)C(C)OC3=O (some centres undefined)', 'activity, negative = inhibition', 'inactive'),
  ('CN[C@H](C(=O)N[C@H](C(=O)N(C)[C@H](/C=C(\C)C(=O)O)C(C)C)C(C)(C)C)C(C)(C)c1ccccc1', 'activity, negative = inhibition', 'inactive'),
  ('C[C@@H]1O[C@@H](O[C@H]2[C@H](OC(=O)[C@]34CCC(C)(C)C[C@H]3C3=CCC5[C@@]6(C)CC[C@H](O[C@@H]7O[C@H](C(=O)O)[C@@H](O)[C@H](O)[C@H]7O[C@@H]7O[C@H](CO)[C@H](O)[C@H](O)[C@H]7O)[C@@](C)(C=O)C6CC[C@@]5(C)[C@]3(C)C[C@H]4O)O[C@H](C)[C@H](O[C@@H]3O[C@H](C)[C@H](O)[C@H](O)[C@H]3O)[C@@H]2O)[C@H](O)[C@H](O)[C@H]1O[C@@H]1OC[C@@H](O)[C@H](O[C@@H]2O[C@H](CO)[C@@H](O)[C@H](O)[C@H]2O)[C@H]1O (some centres undefined)', 'activity, negative = inhibition', '4.73% [at 6.45 µM] (inactive)');

Source of measurements: PubChem BioAssay (NCATS)
